# target or test system: Mitogen-activated protein kinase 8 (Homo sapiens, UniProt P45983)
# Sequence (P45983 whole entry): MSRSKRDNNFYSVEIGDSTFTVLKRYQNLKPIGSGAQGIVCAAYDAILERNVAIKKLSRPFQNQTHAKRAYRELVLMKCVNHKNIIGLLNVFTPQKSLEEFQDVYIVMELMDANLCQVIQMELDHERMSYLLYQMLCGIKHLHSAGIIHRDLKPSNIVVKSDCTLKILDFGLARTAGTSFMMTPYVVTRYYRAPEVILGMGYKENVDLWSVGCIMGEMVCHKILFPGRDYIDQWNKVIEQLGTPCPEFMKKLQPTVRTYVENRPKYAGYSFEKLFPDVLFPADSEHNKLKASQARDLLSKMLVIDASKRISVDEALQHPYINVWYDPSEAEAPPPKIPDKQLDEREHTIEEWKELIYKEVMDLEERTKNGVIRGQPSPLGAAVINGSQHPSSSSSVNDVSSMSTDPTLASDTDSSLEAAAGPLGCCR
# test description: Inhibition of JNK1 (unknown origin)
pIC50: −log10 of the molar value.
# label = 1 if pIC50 >= 6 else 0

mol smiles: COc1ccccc1Nc1ncc(Cl)c(-c2ccc(C(N)=O)c(C(C)C)c2)n1
category label: 0
//
mol smiles: COc1ccccc1Nc1ncc(F)c(-c2ccc(C(N)=O)c(C(C)C)c2)n1
category label: 0
//
mol smiles: COc1ccccc1Nc1nccc(-c2ccc(C(N)=O)cc2)n1
category label: 0
//
mol smiles: Cc1ccc(CN2CCOCC2)cc1-c1cc2c(-c3ccc(C(N)=O)cc3)ccnc2[nH]1
category label: 0
//
mol smiles: Cc1ccc(OCCN2CCOCC2)cc1-c1cc2c(-c3ccc(C(N)=O)cc3)ccnc2[nH]1
category label: 1
//
mol smiles: CN(C)CCCNC(=O)c1ccc(-c2cc3c(-c4ccc(C(N)=O)cc4)ccnc3[nH]2)cc1
category label: 1
//
mol smiles: CN(C)Cc1cccc(-c2cc3c(-c4ccc(C(N)=O)cc4)ccnc3[nH]2)c1
category label: 1
//
mol smiles: COc1ccccc1-c1cc2c(-c3ccc(C(N)=O)c(C4CCCC4)c3)ccnc2[nH]1
category label: 0
//
mol smiles: COc1ccccc1Nc1ncc(F)c(-c2ccc(C(=O)O)c(C(C)C)c2)n1
category label: 0
//
mol smiles: Cc1ccc(-c2ccccc2)cc1Nc1nccc(-c2ccc(C(N)=O)cc2)n1
category label: 0

----------
# log10(IC50) listing for each entry below
# target or test system: Calcium/calmodulin-dependent protein kinase kinase 2 (Mus musculus, UniProt Q8C078)
# Sequence (Q8C078 whole entry): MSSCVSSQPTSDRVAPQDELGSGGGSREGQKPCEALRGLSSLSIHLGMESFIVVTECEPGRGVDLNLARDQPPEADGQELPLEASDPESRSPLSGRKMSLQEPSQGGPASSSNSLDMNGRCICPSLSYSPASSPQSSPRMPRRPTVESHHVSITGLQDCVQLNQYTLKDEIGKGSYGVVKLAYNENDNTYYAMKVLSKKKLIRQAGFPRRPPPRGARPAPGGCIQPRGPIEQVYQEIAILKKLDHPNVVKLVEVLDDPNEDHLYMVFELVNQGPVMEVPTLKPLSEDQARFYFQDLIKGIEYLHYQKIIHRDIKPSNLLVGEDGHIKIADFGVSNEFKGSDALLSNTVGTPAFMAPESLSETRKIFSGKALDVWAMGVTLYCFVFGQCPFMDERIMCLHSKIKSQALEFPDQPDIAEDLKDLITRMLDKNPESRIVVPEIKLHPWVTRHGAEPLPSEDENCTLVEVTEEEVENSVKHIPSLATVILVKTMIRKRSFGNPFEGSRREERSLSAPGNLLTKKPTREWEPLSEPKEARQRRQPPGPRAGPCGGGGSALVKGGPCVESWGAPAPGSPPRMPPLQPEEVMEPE
# test description: Inhibition of CAMKK2 in mouse N39 cells assessed as decrease in AMPKalpha phosphorylation at T172 preincubated for 80 mins followed by […] addition by ELISA
# Type: cell-based
parameter: log10(IC50) (log10 of the value in µM)

compound: COc1ccccc1Nc1ncc(F)c(-c2ccc(C(N)=O)c(C(C)C)c2)n1
target or test system: Calcium/calmodulin-dependent protein kinase kinase 2 (Mus musculus, UniProt Q8C078)
assay result: 0.50

compound: O=C(O)c1ccc(-c2c[nH]c3ncc(-c4ccccc4)cc23)cc1C1CCCC1 [GSK-650394]
target or test system: Calcium/calmodulin-dependent protein kinase kinase 2 (Mus musculus, UniProt Q8C078)
assay result: 0.10

compound: CN(C)CCCNC(=O)c1cccc(-c2cc3c(-c4ccc(C(N)=O)cc4)ccnc3[nH]2)c1
target or test system: Calcium/calmodulin-dependent protein kinase kinase 2 (Mus musculus, UniProt Q8C078)
assay result: 0.60

compound: O=C(O)c1ccc(-c2ccnc(Nc3cccc(-c4ccccc4)c3)n2)cc1
target or test system: Calcium/calmodulin-dependent protein kinase kinase 2 (Mus musculus, UniProt Q8C078)
assay result: 0.90

compound: Cc1c(OCCN2CCOCC2)cccc1-c1cc2c(-c3ccc(C(N)=O)cc3)ccnc2[nH]1
target or test system: Calcium/calmodulin-dependent protein kinase kinase 2 (Mus musculus, UniProt Q8C078)
assay result: -0.60

compound: NC(=O)c1ccc(-c2c[nH]c3ncc(-c4ccccc4O)cc23)cc1C1CCCC1
target or test system: Calcium/calmodulin-dependent protein kinase kinase 2 (Mus musculus, UniProt Q8C078)
assay result: 0.60

compound: CN(C)Cc1cccc(-c2cc3c(-c4ccc(C(N)=O)cc4)ccnc3[nH]2)c1
target or test system: Calcium/calmodulin-dependent protein kinase kinase 2 (Mus musculus, UniProt Q8C078)
assay result: -0.90

compound: Cc1ccc(CN2CCOCC2)cc1-c1cc2c(-c3ccc(C(N)=O)cc3)ccnc2[nH]1
target or test system: Calcium/calmodulin-dependent protein kinase kinase 2 (Mus musculus, UniProt Q8C078)
assay result: -1.50

compound: COc1ccccc1-c1cc2c(-c3ccc(C(N)=O)cc3)ccnc2[nH]1
target or test system: Calcium/calmodulin-dependent protein kinase kinase 2 (Mus musculus, UniProt Q8C078)
assay result: -0.10

compound: Cc1ccc(CN2CCOCC2)cc1-c1cc2c(-c3ccc(C#N)c(C(C)C)c3)ccnc2[nH]1
target or test system: Calcium/calmodulin-dependent protein kinase kinase 2 (Mus musculus, UniProt Q8C078)
assay result: -0.40

compound: Cc1ccc(CN2CCOCC2)cc1-c1cc2c(-c3ccc(C#N)cc3)ccnc2[nH]1
target or test system: Calcium/calmodulin-dependent protein kinase kinase 2 (Mus musculus, UniProt Q8C078)
assay result: 0.40

compound: NC(=O)c1ccc(-c2ccnc(Nc3cc(-c4ccccc4)ccc3F)n2)cc1
target or test system: Calcium/calmodulin-dependent protein kinase kinase 2 (Mus musculus, UniProt Q8C078)
assay result: 0.90

compound: CC(C)c1cc(-c2c[nH]c3nc(C#N)ccc23)ccc1C(=O)O
target or test system: Calcium/calmodulin-dependent protein kinase kinase 2 (Mus musculus, UniProt Q8C078)
assay result: 0.80

compound: Cc1cc(OCCN2CCOCC2)ccc1-c1cc2c(-c3ccc(C#N)cc3)ccnc2[nH]1
target or test system: Calcium/calmodulin-dependent protein kinase kinase 2 (Mus musculus, UniProt Q8C078)
assay result: 0.90

compound: NC(=O)c1ccc(-c2ccnc(Nc3cccc(-c4ccccc4)c3)n2)cc1
target or test system: Calcium/calmodulin-dependent protein kinase kinase 2 (Mus musculus, UniProt Q8C078)
assay result: -0.20

compound: Cc1cc(OCCN2CCOCC2)ccc1-c1cc2c(-c3ccc(C(N)=O)cc3)ccnc2[nH]1
target or test system: Calcium/calmodulin-dependent protein kinase kinase 2 (Mus musculus, UniProt Q8C078)
assay result: -0.80

compound: Cc1ccc(CN2CCOCC2)cc1-c1cc2c(-c3ccc(C(N)=O)c(C(C)C)c3)ccnc2[nH]1
target or test system: Calcium/calmodulin-dependent protein kinase kinase 2 (Mus musculus, UniProt Q8C078)
assay result: -0.70

compound: COc1ccccc1Nc1nccc(-c2ccc(C(=O)O)c(C(C)C)c2)n1
target or test system: Calcium/calmodulin-dependent protein kinase kinase 2 (Mus musculus, UniProt Q8C078)
assay result: 0.00

compound: CC(C)c1cc(-c2c[nH]c3ncc(-c4ccccc4)cc23)ccc1C(=O)O
target or test system: Calcium/calmodulin-dependent protein kinase kinase 2 (Mus musculus, UniProt Q8C078)
assay result: 0.10

compound: Cc1c(CN2CCOCC2)cccc1-c1cc2c(-c3ccc(C(N)=O)cc3)ccnc2[nH]1
target or test system: Calcium/calmodulin-dependent protein kinase kinase 2 (Mus musculus, UniProt Q8C078)
assay result: -0.70

compound: Cc1cc(OCCN2CCOCC2)ccc1-c1cc2c(-c3ccc(C(N)=O)c(C(C)C)c3)ccnc2[nH]1
target or test system: Calcium/calmodulin-dependent protein kinase kinase 2 (Mus musculus, UniProt Q8C078)
assay result: -1.20

compound: O=C(O)c1ccc(-c2c[nH]c3ncccc23)cc1C1CCCC1
target or test system: Calcium/calmodulin-dependent protein kinase kinase 2 (Mus musculus, UniProt Q8C078)
assay result: 0.60

compound: CS(=O)(=O)Nc1ccc(-c2cc3c(-c4ccc(C(N)=O)cc4)ccnc3[nH]2)cc1
target or test system: Calcium/calmodulin-dependent protein kinase kinase 2 (Mus musculus, UniProt Q8C078)
assay result: -0.50

compound: Cc1cc(CN2CCOCC2)ccc1-c1cc2c(-c3ccc(C(N)=O)cc3)ccnc2[nH]1
target or test system: Calcium/calmodulin-dependent protein kinase kinase 2 (Mus musculus, UniProt Q8C078)
assay result: 0.30
